- Test system: VEGFR2
- Construct: gene KDR
- Run conditions: concentration: 1 μM, replicates: in singlicate; n = 1;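 note: KINOMEscan kinase panel screen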
Provide the reported %Inh of each item.
Numeric answer plus unit only.

State the recorded %Inh for this entry: Fc1ccc(-c2ncn(CCCNCc3ccccc3)c2-c2ccncc2)cc1
0%

State the recorded %Inh for this entry: CC(C)(C)c1ccc(-n2cnc3c(N)ncnc32)cc1
11%

State the recorded %Inh for this entry: Clc1cccc(-c2nc(Nc3ccncc3)c3ccccc3n2)c1
0%

State the recorded %Inh for this entry: O=C(NCCCN1CCCC1=O)c1cnc(NCc2cc(Cl)ccc2Cl)nc1NC1CCNCC1
0%

State the recorded %Inh for this entry: Nc1nc(-c2ccc3c(N)n[nH]c3c2)cc(N2CCCCC2)n1
0%

State the recorded %Inh for this entry: O=C(Nc1ccccc1F)NC1CCN(c2ccnc(Nc3ccc(F)cc3)n2)C1 (stereo not drawn)
0%

State the recorded %Inh for this entry: CC(C)N1CCC(n2cnc(-c3ccc(F)cc3)c2-c2ccnc(N)n2)CC1
0%

State the recorded %Inh for this entry: COC(=O)c1cccc(NC(=O)NCCNc2ccnc(Nc3ccc(F)cc3)n2)c1
5%

State the recorded %Inh for this entry: Cn1ccc2ncnc(Oc3ccc(NC(=O)Nc4cccnc4)c(Cl)c3)c21
74%

State the recorded %Inh for this entry: CCc1nc(-c2cccc(C)c2)c(-c2ccnc(NC(=O)c3ccccc3)c2)s1
0%

State the recorded %Inh for this entry: CCn1c(-c2ccncc2)nc2cnccc21
24%

State the recorded %Inh for this entry: CSc1ccc(NC2=C(c3ccccc3Cl)C(=O)NC2=O)cc1
0%

State the recorded %Inh for this entry: C[C@H]1CC[C@@H](C(=O)Nc2ccccc2)CN1c1cc(-c2ccc3c(N)n[nH]c3c2)nc(N)n1
0%

State the recorded %Inh for this entry: Fc1ccc(Nc2nccc(-c3c(-c4ccc(Cl)cc4)nn4ncccc34)n2)cc1F
25%

State the recorded %Inh for this entry: CCc1nc(-c2cccc(N(C)S(=O)(=O)c3ccccc3)c2)c(-c2ccnc(Nc3ccc(N4CCN(C(C)=O)CC4)nc3)n2)s1
31%

State the recorded %Inh for this entry: Cc1cc(N2CCC(NS(=O)(=O)c3ccc(F)cc3)CC2)nc(Nc2cccc(C#N)c2)n1.O=C(O)C(F)(F)F
0%

State the recorded %Inh for this entry: COc1cc2ncnc(Nc3ccc(OCc4ccccc4Br)c(Cl)c3)c2cc1OC.Cl
0%

State the recorded %Inh for this entry: Fc1cccc(COc2ccc(Nc3ncnc4sc(-c5ccc[nH]5)cc34)cc2Cl)c1
8%

State the recorded %Inh for this entry: COc1ccc(Nc2nccc(N3CCC(NC(=O)c4cccc(NC(C)=O)c4)C3)n2)cc1 (stereo not drawn)
0%

State the recorded %Inh for this entry: Cc1ccc(NC(=O)c2cccc(C#N)c2)cc1-c1ccc(C(=O)Nc2ccncc2)cc1
11%

State the recorded %Inh for this entry: Fc1cccc(COc2ccc(Nc3ncnc4nn5ccccc5c34)cc2Cl)c1
0%

###

- System: PRKG1
- Run conditions: concentration: 1 μM, replicates: in singlicate; n = 1
Parameter: %Inh (%)
Reply with just the number (in %).

State the recorded %Inh for this entry: Cl.c1ccc(Cn2ccc3cc(Nc4ncnc5ccccc45)ccc32)cc1
0

State the recorded %Inh for this entry: Cl.Fc1ccccc1COc1ccc(Nc2ncnc3ccc(-c4nnc(C(F)(F)F)o4)cc23)cc1Cl
0

State the recorded %Inh for this entry: Nc1nc(-c2ccccn2)c(-c2ccnc3ccccc23)s1
17

State the recorded %Inh for this entry: CSc1nn2c(=O)cc(N3CCOCC3)nc2n1Cc1cccc(Cl)c1Cl
25

State the recorded %Inh for this entry: Clc1ccc(-c2cc(-c3c[nH]nc3-c3ccccn3)ccn2)cc1
0

State the recorded %Inh for this entry: Cc1cc(N2CCC(NS(=O)(=O)c3ccc(F)cc3)CC2)nc(Nc2cccc(C#N)c2)n1.O=C(O)C(F)(F)F
3

State the recorded %Inh for this entry: Clc1cc(Nc2ncnc3cc[nH]c23)ccc1OCc1ccccn1
10

State the recorded %Inh for this entry: Fc1cccc(COc2ccc(Nc3ncnc4nn5ccccc5c34)cc2Cl)c1
0

State the recorded %Inh for this entry: Cc1ccc(C)c(NC(=O)NCCNc2ccnc(Nc3ccc(F)cc3)n2)c1
0

State the recorded %Inh for this entry: FC(F)(F)c1cc(Nc2nccc(-c3c(-c4ccc(Cl)cc4)nn4ncccc34)n2)ccc1Cl
23

State the recorded %Inh for this entry: COc1ccc(NC(=O)Nc2ccc(C)c(-c3ccc(C(=O)Nc4ccncc4)cc3)c2)cc1
0

State the recorded %Inh for this entry: FC(F)(F)c1ccc(-c2nn3ncccc3c2-c2ccnc(Nc3cccc(C(F)(F)F)c3)n2)cc1
5

State the recorded %Inh for this entry: Cn1ccc2ncnc(Nc3ccc(Oc4cccc(Cl)c4)c(Cl)c3)c21
0

State the recorded %Inh for this entry: Nc1nc(-c2ccc3c(N)n[nH]c3c2)cc(N2CCCCC2)n1
0

State the recorded %Inh for this entry: C[C@@H]1CCN(C(=O)CO)C[C@@H]1N(C)c1ncnc2[nH]ccc12
95.3

State the recorded %Inh for this entry: FC(F)(F)c1ccc(-c2cc(-c3c[nH]nc3-c3ccccn3)ccn2)cc1
4

State the recorded %Inh for this entry: CN1c2ccc(-c3ccc(C(=O)NCCO)cc3)cc2-c2[nH]ncc2S1(=O)=O
61

State the recorded %Inh for this entry: COc1cc2c(Nc3cccc(NC(=O)c4ccccc4)c3)ncnc2cc1OCCCN1CCOCC1
8

The reported numbers originate from paper PMC5540273.
